Reported IC50 is given for each of the following compounds.
- targetOfAssay: HSP90α (Homo sapiens, UniProt P07900)

>  <compound>
Cc1ccccc1-n1c(=O)n(Cc2ccccc2)c(=O)c2[nH]cnc21

>  <IC50>
111 nM

$$$$

The recorded IC50 with HSP90α (Homo sapiens, UniProt P07900) for Cn1c(=O)c2c(ncn2C)n(C)c1=O [Caffeine, reference compound] was > 300000 nM

---

- assayProtocol: Mouse plasma exposure after oral and intravenous administration, brain and kidney distribution
- Type: in vivo, CD1 mouse
- cond: plasma; IV 5 mg/kg, CD1 mouse
propertyLabel: clearance (mL/min/kg)
Numeric answer only, unit mL/min/kg assumed.

According to the records, this compound Cc1ccccc1-n1c(=O)n(Cc2ccccc2)c(=O)c2[nH]cnc21 [Compound K5] displays clearance of 38

---

- System: WI38 cells
- assayProtocol: Dose-response curves on proliferating and replicative senescent WI38 (Trypan blue cell count)
- Format: cell-based
- cond: Homo sapiens, WI-38; WI38; read-out: EC50 proliferating cells
propertyLabel: EC50

According to the records, this molecule "Cc1ccccc1-n1c(=O)n(Cc2ccccc2)c(=O)c2[nH]cnc21" displays EC50 of > 500 µM

---

- Tested on: IMR90 cells
- assayProtocol: In vitro screening of the 14 in silico-selected compounds, surviving cell count, proliferating vs senescent IMR90
- Type: cell-based, Homo sapiens
- cond: PD15-PD17, 1 μM, 48 h

>  <compound>
CC(C)(C)S(=O)(=O)C/C(N)=N/OS(=O)(=O)c1ccc(F)cc1F [Compound K4]

>  <effect on non-senescent IMR90 cells>
robust level of safety

$$$$
>  <compound>
Cc1ccccc1-n1c(=O)n(Cc2ccccc2)c(=O)c2[nH]cnc21 [Compound K5]

>  <effect on non-senescent IMR90 cells>
robust level of safety

$$$$

---

- assayProtocol: Mouse plasma exposure after oral and intravenous administration, brain and kidney distribution
- Format: in vivo, CD1 mouse
- cond: plasma; oral 30 mg/kg, CD1 mouse; read-out: T ½ in plasma
propertyLabel: half-life

According to the records, this compound "Cc1ccccc1-n1c(=O)n(Cc2ccccc2)c(=O)c2[nH]cnc21" displays half-life of ~5 h

---

- assayProtocol: Mouse plasma exposure after oral and intravenous administration, brain and kidney distribution
- Type: in vivo, CD1 mouse
- cond: plasma; IV 5 mg/kg, CD1 mouse; read-out: T ½ in plasma
propertyLabel: half-life (min)
Numeric answer only, unit min assumed.

According to the records, this compound "Cc1ccccc1-n1c(=O)n(Cc2ccccc2)c(=O)c2[nH]cnc21" displays half-life of 13
